Collected IC50 for UniProtKB Q92793 across several studies; molecules listed below.
Sequence (Q92793 whole entry): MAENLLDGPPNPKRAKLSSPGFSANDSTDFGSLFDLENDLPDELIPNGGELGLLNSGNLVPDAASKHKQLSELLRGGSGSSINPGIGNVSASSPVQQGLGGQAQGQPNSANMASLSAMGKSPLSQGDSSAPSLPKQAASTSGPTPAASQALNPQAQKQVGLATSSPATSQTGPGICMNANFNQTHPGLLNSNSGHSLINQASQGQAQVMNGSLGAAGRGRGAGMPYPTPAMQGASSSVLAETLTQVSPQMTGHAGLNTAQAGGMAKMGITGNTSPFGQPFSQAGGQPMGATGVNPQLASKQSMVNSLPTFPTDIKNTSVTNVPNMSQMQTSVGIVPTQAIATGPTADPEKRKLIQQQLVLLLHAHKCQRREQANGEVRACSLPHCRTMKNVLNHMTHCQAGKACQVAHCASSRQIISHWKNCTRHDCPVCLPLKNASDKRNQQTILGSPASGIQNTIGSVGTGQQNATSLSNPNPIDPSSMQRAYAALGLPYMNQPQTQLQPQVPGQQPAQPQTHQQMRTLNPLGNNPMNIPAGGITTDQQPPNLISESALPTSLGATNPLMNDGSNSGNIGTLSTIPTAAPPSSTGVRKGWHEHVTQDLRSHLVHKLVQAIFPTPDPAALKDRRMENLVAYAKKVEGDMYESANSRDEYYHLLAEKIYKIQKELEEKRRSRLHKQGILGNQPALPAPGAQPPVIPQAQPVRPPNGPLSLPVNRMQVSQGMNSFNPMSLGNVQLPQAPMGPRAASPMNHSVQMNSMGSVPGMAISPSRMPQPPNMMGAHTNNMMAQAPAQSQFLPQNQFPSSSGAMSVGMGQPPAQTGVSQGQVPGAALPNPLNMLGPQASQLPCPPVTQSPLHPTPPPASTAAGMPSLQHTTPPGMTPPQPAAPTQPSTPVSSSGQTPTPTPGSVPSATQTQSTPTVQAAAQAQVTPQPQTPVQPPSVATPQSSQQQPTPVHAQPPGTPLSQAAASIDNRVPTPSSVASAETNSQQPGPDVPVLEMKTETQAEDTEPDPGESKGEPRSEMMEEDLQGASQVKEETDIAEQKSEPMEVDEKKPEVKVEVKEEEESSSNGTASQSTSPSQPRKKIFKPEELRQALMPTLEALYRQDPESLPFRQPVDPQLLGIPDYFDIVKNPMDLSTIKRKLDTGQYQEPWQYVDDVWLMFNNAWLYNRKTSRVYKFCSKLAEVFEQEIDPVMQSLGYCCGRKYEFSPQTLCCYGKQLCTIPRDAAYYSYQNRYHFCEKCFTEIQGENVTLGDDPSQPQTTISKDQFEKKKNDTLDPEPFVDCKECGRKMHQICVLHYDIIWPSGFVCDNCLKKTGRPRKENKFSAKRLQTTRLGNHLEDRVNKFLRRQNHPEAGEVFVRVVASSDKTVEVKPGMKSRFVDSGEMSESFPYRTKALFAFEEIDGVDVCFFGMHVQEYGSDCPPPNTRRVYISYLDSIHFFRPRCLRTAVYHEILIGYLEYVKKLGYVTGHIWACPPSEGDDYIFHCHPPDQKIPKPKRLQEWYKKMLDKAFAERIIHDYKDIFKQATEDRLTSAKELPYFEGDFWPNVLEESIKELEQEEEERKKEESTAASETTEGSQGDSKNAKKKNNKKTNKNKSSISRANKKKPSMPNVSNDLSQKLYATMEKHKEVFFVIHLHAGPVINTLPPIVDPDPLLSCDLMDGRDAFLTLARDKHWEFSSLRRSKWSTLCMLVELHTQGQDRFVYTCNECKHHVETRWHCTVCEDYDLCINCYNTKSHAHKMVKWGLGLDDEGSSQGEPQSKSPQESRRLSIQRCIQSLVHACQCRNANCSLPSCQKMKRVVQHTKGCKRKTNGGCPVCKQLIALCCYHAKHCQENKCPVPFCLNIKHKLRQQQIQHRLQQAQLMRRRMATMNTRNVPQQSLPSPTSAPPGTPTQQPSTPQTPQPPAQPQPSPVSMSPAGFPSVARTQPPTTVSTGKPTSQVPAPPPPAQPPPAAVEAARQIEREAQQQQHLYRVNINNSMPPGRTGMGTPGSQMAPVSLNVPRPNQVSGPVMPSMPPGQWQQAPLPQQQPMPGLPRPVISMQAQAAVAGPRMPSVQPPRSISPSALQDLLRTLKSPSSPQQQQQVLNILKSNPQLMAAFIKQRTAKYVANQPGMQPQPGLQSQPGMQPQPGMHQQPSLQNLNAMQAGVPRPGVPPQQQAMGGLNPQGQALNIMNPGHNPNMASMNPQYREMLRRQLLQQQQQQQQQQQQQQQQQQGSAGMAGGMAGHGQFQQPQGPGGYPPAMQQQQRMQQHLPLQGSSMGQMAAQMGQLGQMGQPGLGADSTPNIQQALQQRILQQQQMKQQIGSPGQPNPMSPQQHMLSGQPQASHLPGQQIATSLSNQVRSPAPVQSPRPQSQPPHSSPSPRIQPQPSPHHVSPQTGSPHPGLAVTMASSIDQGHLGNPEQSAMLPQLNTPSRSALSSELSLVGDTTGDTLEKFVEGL
Numbers only, in nM.

> print(dat)
                                   compound  recorded.metric  readout.value
1  CC(=O)n1cc(C(=O)Nc2cc(CCc3ccccc3)cc(C(=O)O)c2)c2ccccc21             IC50           1960
2  COc1ccccc1CCc1nc2cc(-c3c(C)noc3C)ccc2n1CCN1CCOCC1             IC50            980
3  CNC(=O)Nc1ccc2c(c1)CC[C@@]21OC(=O)N(CC(=O)N2Cc3ccc(F)cc3CC[C@H]2C2CC2)C1=O             IC50            8.1
4  COc1cccc(-c2cc(NC(=O)c3cn(C(C)=O)c4ccccc34)cc(C(=O)O)c2)c1             IC50           2070

Now for a further molecule.
State its IC50: "CC(=O)n1cc(C(=O)Nc2cc(C(=O)O)cc(C3CCCCC3)c2)c2ccccc21" 2480
